# experimental protocol: qHTS assay to identify small molecule antagonists of the sonic hedgehog signaling (Shh) pathway - cell viability counter screen (AID 1259367); note: nearly all actives have a fitted effect of over 55% in size
# experimental setup: NIH/3T3 Gli1-Luc viability, CellTiter-Fluor, 24 h; series mostly up to 92.4 µM
Inconclusive results are not listed. Activity calls are given as the source filed them. Calls come from the whole dose curve; as a rule, active = well fitted cell-killing curve with a large enough effect in the repeat runs; inconclusive = weak or mixed curves, or effect the other way; inactive = no such curve, though single readings can be large or run the other way.
Outcome codes: active, inactive

| molecule | class label |
| --- | --- |
| CCOC(=O)Cn1cccc1-c1nc(-c2ccc(OC)cc2)c(-c2ccc(OC)cc2)s1 | inactive |
| O=C(O)Cc1ccc2c(c1)C(=O)c1ccccc1CO2 | inactive |
| CC1(C)CCC[C@]2(C)[C@H]3CCO[C@]3(C)CC[C@@H]12 | inactive |
| O=C(/C=C/c1ccccc1)OC/C=C/c1ccccc1 | inactive |
| Nc1nc(-c2ccccc2)cs1 | inactive |
| Cc1ccc(O)c(O)c1 | active |
| COc1c(C)c2c(c(O)c1C/C=C(\C)CCC(=O)OCCN1CCOCC1)C(=O)OC2 | inactive |
| CNc1ccc([N+](=O)[O-])cc1 | inactive |
| CC[C@H](C)COC(=O)/C=C/c1ccc(N=Cc2ccc(OC)cc2)cc1 | inactive |
| CCCCCCCC | inactive |
| C=CCCC(=O)/C=C/C1C(C)=CCCC1(C)C (stereo not given) | inactive |
| C=CCn1c(=O)n(CC=C)c(=O)n(CC=C)c1=O | inactive |
| CCCC(=O)OCOC(=O)C1=C(C)NC(C)=C(C(=O)OC)C1c1cccc(Cl)c1Cl (stereo not given) | inactive |
| Cl[Si](Cl)(c1ccccc1)c1ccccc1 | inactive |
| S=c1nccc[nH]1 | inactive |
| Oc1cc(Cl)cc(Cl)c1Cl | inactive |
| COc1cc(S(=O)(=O)O)c(C)cc1N=Nc1c(O)ccc2cc(S(=O)(=O)O)ccc12 | active |
| CC(C)(C)c1ccc(C(O)CCCN2CCC(C(O)(c3ccccc3)c3ccccc3)CC2)cc1 (stereo not given) | inactive |
| Cc1ccc(-c2ccccc2)cc1 | inactive |
| Oc1c(I)cc(Cl)c2cccnc12 | inactive |
| CC1(C)[C@@H](O)CC[C@]2(C)[C@H]3C(=O)C=C4[C@@H]5C[C@@](C)(C(=O)O)CC[C@]5(C)CC[C@@]4(C)[C@]3(C)CC[C@@H]12 | inactive |
| C=Cc1ccccc1C=C | inactive |
| CCN(CCN)c1cccc(C)c1 | inactive |
| O=C(O)c1cc(N=Nc2ccc([N+](=O)[O-])cc2)ccc1O | active |
| CC(C)(C)c1csc(-c2cc3cc(OCc4ccccc4CC(=O)O)ccc3o2)n1 | inactive |

====

# experimental protocol: qHTS assay to identify small molecule antagonists of the constitutive androstane receptor (CAR) signaling pathway - cell viability counter screen (AID 1224837); note: nearly all actives have a fitted effect of over 45% in size
# experimental setup: HepG2-CYP2B6-hCAR viability, CellTiter-Fluor, 23 h, co-treated with 50 nM CITCO; series mostly up to 92.4 µM
Inconclusive results are not listed. The source made the active and inactive calls. The call rests on the fitted dose curve; in most records, active means well fitted cell-killing curve with a large enough effect in the repeat runs; inconclusive means weak or mixed curves, or effect the other way; inactive means flat fitted curve, though single readings scatter.
Outcomes: YES (active), NO (inactive)

| compound | class label |
| --- | --- |
| CC(=O)Oc1cc2c(s1)CCN(C(C(=O)C1CC1)c1ccccc1F)C2 (stereo not drawn) | NO |
| COc1ccc(NC(=O)CC(C)=O)cc1 | NO |
| Nc1ccc(Oc2ccc(Cl)cc2)cc1 | NO |
| [Cl][Pt-2]([Cl])([Cl])[Cl] | NO |
| CCCCCC(C)OC(=O)COc1ccc(Cl)c2cccnc12 (stereo not drawn) | NO |
| COC(=O)c1ccccc1C | NO |
| C=CC(=O)Nc1cc2c(Nc3ccc(F)c(Cl)c3)ncnc2cc1OCCCN1CCOCC1 | YES |
| Cc1ccc(-c2ccccc2)cc1 | NO |
| O=S(=O)(O)c1ccc(N=Nc2c(O)ccc3ccccc23)cc1 | YES |
| C=C(C)C(=O)OCCCCCCCCCC | NO |
| CCC(CC)C(C)CCOC(C)=O (stereo not drawn) | NO |
| COc1cc(/C=C/c2ccccc2)oc(=O)c1 | NO |
| Fc1ccc(C(c2ccc(F)cc2)N2CCNCC2)cc1 | NO |

====

# experimental protocol: qHTS assay to identify small molecule agonists of the sonic hedgehog signaling (Shh) pathway - cell viability counter screen (AID 1259366); note: nearly all actives have a fitted effect of over 50% in size
# experimental setup: NIH/3T3 Gli1-Luc viability, CellTiter-Fluor, 24 h; series mostly up to 92.4 µM
Records with an inconclusive call do not appear. Active and inactive are the calls of the source. Calls follow the shape of the dose curve; as a rule, active = well fitted cell-killing curve with a large enough effect in the repeat runs; inconclusive = weak or mixed curves, or effect the other way; inactive = flat fitted curve, though single readings scatter.
Labels: Yes = active, No = inactive

| compound | class label |
| --- | --- |
| CCc1ccc(Br)cc1 | No |
| Oc1c(I)cc(Cl)c2cccnc12 | No |
| CCCCCC/C=C\CCCCCCCC(=O)O | No |
| O=C(O)c1cccc(C(F)(F)F)c1 | No |
| O=S(=O)(O)c1ccc(N=Nc2c(O)ccc3ccccc23)cc1 | Yes |
| OC1CCCc2ccccc21 (configuration not stated) | No |
| CCOC(=O)NNc1ccc(N(CC)CC(C)O)nn1 (configuration not stated) | No |
| CC(=O)Oc1cc2c(s1)CCN(C(C(=O)C1CC1)c1ccccc1F)C2 (configuration not stated) | No |
| CC(=O)[C@H]1CC[C@H]2[C@@H]3CCC4=CC(=O)CC[C@]4(C)[C@H]3CC[C@]12C | No |
| COc1ccc(NC(=O)CC(C)=O)cc1 | No |
| CCCCC/C=C\C/C=C\CCCCCCCC(=O)O | No |
| O=C(O)[C@H](O)[C@@H](O)[C@H](O[C@@H]1O[C@H](CO)[C@H](O)[C@H](O)[C@H]1O)[C@H](O)CO | No |
| O=C(O)c1ccc2cc(C(=O)O)ccc2c1 | No |
| CCN1C(=O)c2ccccc2C1Nc1ccc(OCCN2CCCCC2)cc1 (configuration not stated) | No |
| C=CC(=O)OCCOC(=O)C=C | No |
| CN(C)CCN1CCN(c2cccc(Cl)c2)C1=O | No |
| O=[N+]([O-])c1ccc(O)cc1C(F)(F)F | No |

====

# experimental protocol: A CellTox Green Cytotoxicity Assay to monitor cytotoxicity in HEK293 cells - 8 hour (AID 1224884); note: nearly all actives have a fitted effect of over 35% in size
# experimental setup: CellTox Green fluorescence; series mostly up to 76.8 µM
Records with an inconclusive call do not appear. Active and inactive are the calls of the source. The call rests on the fitted dose curve; in most records, active means well fitted activation curve with a large enough effect in the repeat runs; inconclusive means weak or mixed curves; inactive means flat fitted curve, though single readings scatter.
Outcomes: 1 (yes) (active), 0 (no) (inactive)

| molecule | class label |
| --- | --- |
| Cc1c2ccccc2c(C)c2c1ccc1ccccc12 | 0 (no) |
| COc1cccc2c1C(=O)c1c(O)c3c(c(O)c1C2=O)C[C@@](O)(C(C)=O)C[C@@H]3O[C@H]1C[C@H](N)[C@H](O)[C@H](C)O1 | 1 (yes) |
| O=C(Oc1ccccc1)Oc1ccccc1 | 0 (no) |
| CCCCOC(=O)CO | 0 (no) |
| Cc1cc(C(C)(C)C)cc(C)c1CC1=NCCN1 | 0 (no) |
| O=C(O)c1cccc(C(F)(F)F)c1 | 0 (no) |
| c1ccsc1 | 0 (no) |
| CCO[C@@H]1O[C@H](C(COCc2ccccc2)OCc2ccccc2)[C@H](OCc2ccccc2)[C@H]1O (some centres not stated) | 0 (no) |
| O=S(=O)(O)c1ccccc1/C=C/c1ccc(-c2ccc(/C=C/c3ccccc3S(=O)(=O)O)cc2)cc1 | 0 (no) |
| Cc1ccc(-c2ccccc2)cc1 | 0 (no) |
| c1ccc(SSc2ccccc2)cc1 | 0 (no) |
| S=C([S-])NCCNC(=S)[S-].S=C([S-])NCCNC(=S)[S-].[Mn+2].[Zn+2] | 0 (no) |
| OCCN1CCN(CCCN2c3ccccc3Sc3ccc(C(F)(F)F)cc32)CC1 | 0 (no) |
| O=C(O)CCN(C1(C(=O)NO)CCCC1)S(=O)(=O)c1ccc(Oc2ccc(F)cc2)cc1 | 0 (no) |
| Nc1nc(N)nc(-c2cc(Cl)ccc2Cl)n1 | 0 (no) |
| O=S(=O)(O)c1ccc(N=Nc2c(O)ccc3ccccc23)cc1 | 0 (no) |
| C=Cc1ccccc1C=C | 0 (no) |
| CCCCCCCCCCCCOC(=O)c1ccc(O)cc1 | 0 (no) |
| CC(CCc1ccccc1)NCC(O)c1ccc(O)c(C(N)=O)c1 (configuration not stated) | 0 (no) |
| CCN1C(=O)c2ccccc2C1Nc1ccc(OCCN2CCCCC2)cc1 (configuration not stated) | 0 (no) |
| COc1cc(/C=C/c2ccccc2)oc(=O)c1 | 0 (no) |
| CC1=CCC(=C(C)C)CC1 | 0 (no) |
| COC(=O)c1ccccc1C | 0 (no) |
| Nc1ccc(C(=O)O)c(O)c1 | 0 (no) |
| CC/C=C\CCCCCO | 0 (no) |
| CN(C)Cc1cc(C(C)(C)C)c(O)c(C(C)(C)C)c1 | 0 (no) |
| Cc1ccc(C)cc1 | 0 (no) |

Origin of the recorded values: PubChem BioAssay (Tox21)
